- Tested on: U251 CNS
- measurement.protocol: NCI tumour cell line growth inhibition, 48 h
quantity.measured: TGI

Q: // fetch TGI; item: O=C(CSc1nc(-c2ccccc2)c(-c2ccccc2)[nH]1)N/N=C/c1ccc(O)cc1 ; system: U251 CNS
A: 49 µM

Q: // fetch TGI; item: COc1ccc(-c2nc(-c3ccc(C)cc3)cn3ccnc23)cc1 ; system: U251 CNS
A: > 50 µM

Q: // fetch TGI; item: CC(=O)Nc1c(S(=O)(=O)c2ccccc2)c(C)c(C)n1Cc1ccccc1 ; system: U251 CNS
A: > 100 µM

Q: // fetch TGI; item: CC(=O)NC(C)(C)C1CCC(C)=C(c2ccccc2)C1 (stereo not given) ; system: U251 CNS
A: > 100 µM

Q: // fetch TGI; item: Clc1ccc(-c2cn3c(nc4ccccc43)c(/C=C/c3ccco3)n2)cc1 ; system: U251 CNS
A: > 100 µM

Q: // fetch TGI; item: O=[N+]([O-])C(/C=N/Nc1ccccc1)/C=N/Nc1ccccc1 ; system: U251 CNS
A: > 100 µM

Q: // fetch TGI; item: COc1ccc(N=NC(=O)NC(CC(C)C)C(N)=O)cc1 (stereo not given) ; system: U251 CNS
A: > 100 µM

Q: // fetch TGI; item: COc1ccc2c(c1)c(-c1nc(-c3c[nH]c4ccncc34)cs1)cn2C ; system: U251 CNS
A: 3.3 µM

Q: // fetch TGI; item: CC1=C2[C@@H](CC1)[C@]1(C)O[C@@](C(C)C)(C[C@H]1OC(=O)CO)[C@H]2OC(=O)C1CC1c1ccccc1 (stereo not given in full) ; system: U251 CNS
A: 28.6 µM

Q: // fetch TGI; item: CCOC(=O)C(Cc1ccc(OC(=O)OC(C)(C)C)cc1)NC(=O)OC(C)(C)C (stereo not given) ; system: U251 CNS
A: > 100 µM

====

- System: SF-295 CNS
- measurement.protocol: NCI tumour cell line growth inhibition, 48 h
Label Y when TGI is at or above 7 µM; anything below gets N.

Q: Please check the record COc1cc(/C=C/C(=O)/C=C/c2ccc(-n3ccnc3C)cc2)ccc1O and state if its TGI is at or above 7 µM.
A: Y

Q: Please check the record NC(CSSCC(N)=NCC12CC3CC(CC(C3)C1)C2)=NCC12CC3CC(CC(C3)C1)C2 and state if its TGI is at or above 7 µM.
A: Y

Q: Please check the record CC(=O)Oc1c2c(c3n(c1=O)CCCC3)C(=O)N(c1ccccc1)C2=O and state if its TGI is at or above 7 µM.
A: Y

Q: Please check the record O=C1/C=C(/c2ccc(O)cc2)[C@@H](O)Cc2ccc(O)cc2O1 and state if its TGI is at or above 7 µM.
A: Y

Q: Please check the record CC(=O)Nc1c(Nc2ccccc2)[nH]c(C)nc1=S and state if its TGI is at or above 7 µM.
A: Y

Q: Please check the record Cn1cc(-c2ccc3cc(-c4ccc(CC(=O)Nc5cc(C(C)(C)C)on5)cc4)cnc3c2)cn1 and state if its TGI is at or above 7 µM.
A: N

Q: Please check the record Cc1ccccc1NC(=O)c1sc2nc(C)c(C(=O)/C=C/c3ccccc3)cc2c1N and state if its TGI is at or above 7 µM.
A: Y

Q: Please check the record O=C(CSc1nc(-c2ccccc2)c(-c2ccccc2)[nH]1)N/N=C/c1ccc(O)cc1 and state if its TGI is at or above 7 µM.
A: Y

Q: Please check the record CN(c1ccc(C(=O)c2ccc(N(C)S(C)(=O)=O)cc2)cc1)S(C)(=O)=O and state if its TGI is at or above 7 µM.
A: Y

Q: Please check the record CN(CCNC(=O)c1cn(C)c2c1ccc1cc(Cl)c(Cl)cc12)CCNC(=O)c1cn(C)c2c1ccc1cc(Cl)c(Cl)cc12 and state if its TGI is at or above 7 µM.
A: N

Q: Please check the record c1csc(-c2ccsc2-c2cccs2)c1 and state if its TGI is at or above 7 µM.
A: Y

Q: Please check the record Clc1cccc(NN=Nc2ccc(-c3nc4ccccc4s3)cc2)c1 and state if its TGI is at or above 7 µM.
A: Y

Q: Please check the record CC1=C(/C=C/C(C)=C/C2CC(N(C)C)=CC(=O)O2)C(C)(C)CCC1 (configuration not stated) and state if its TGI is at or above 7 µM.
A: Y

Q: Please check the record CC(C)=CCc1[nH]c2ccccc2c1C1=C(O)C(=O)C(c2c(CC=C(C)C)[nH]c3ccccc23)=C(O)C1=O and state if its TGI is at or above 7 µM.
A: N

Q: Please check the record O=c1[nH]cc(Cl)c(=O)[nH]1 and state if its TGI is at or above 7 µM.
A: Y

Q: Please check the record OCCN(/N=C\c1ccc2ccccc2c1)C1=NCCN1 and state if its TGI is at or above 7 µM.
A: Y

Q: Please check the record O=C(CC1OC(O)C(Cl)=C1Cl)c1cccnc1 (configuration not stated) and state if its TGI is at or above 7 µM.
A: Y

====

- Tested on: LOX IMVI melanoma
- measurement.protocol: NCI tumour cell line growth inhibition, 48 h; in the data active = GI50 below about 0.43 µM; inactive = the rest
Select the correct class. Options are active, inactive and nothing else.

Q: Check the results log: what was the call for CCN(Cc1ccccc1)C1CCN(Cc2cc(Br)ccc2O)CC1 ?
A: inactive

Q: Check the results log: what was the call for Nc1ccc(C2=CC(c3ccc(Cl)cc3)N3C=CSC3=N2)cc1 (centres undefined) ?
A: inactive

Q: Check the results log: what was the call for CC(=O)[O-].Cn1ccnc1CNCc1nccn1C.[Cu+2].[O-][Cl+3]([O-])([O-])[O-] ?
A: inactive

Q: Check the results log: what was the call for NC(=O)c1cc([N+](=O)[O-])c(Cl)c([N+](=O)[O-])c1Cl ?
A: active

Q: Check the results log: what was the call for COc1ccc(-c2nc(-c3ccc(C)cc3)cn3ccnc23)cc1 ?
A: inactive

Q: Check the results log: what was the call for CC1C(C)N(C(=O)CCl)c2ccccc2N1C(=O)CCl (centres undefined) ?
A: active

Q: Check the results log: what was the call for O=C(N/N=C\c1ccc(N(CCCl)CCCl)cc1[N+](=O)[O-])c1cccnc1 ?
A: inactive

Q: Check the results log: what was the call for CCOCCCn1c2c(c3c(O)cccc31)C(=O)c1ccccc1-2 ?
A: inactive

Q: Check the results log: what was the call for COc1ccc2c(c1)[nH]c(=O)c1c3cccc(F)c3cn21 ?
A: active

====

Give measured TGI for each item. Keep answers brief.
- Test system: OVCAR-4 ovarian
- measurement.protocol: NCI tumour cell line growth inhibition, 48 h

Q: Tell me its TGI given CN(c1ccc(C(=O)c2ccc(N(C)S(C)(=O)=O)cc2)cc1)S(C)(=O)=O as the entry.
A: > 100 µM

Q: Tell me its TGI given COc1ccc2c(c1OC)CO[C@@H]2[C@H]1c2c(cc3c(c2OC)OCO3)CCN1S(=O)(=O)c1cn(C)cn1 as the entry.
A: > 100 µM

Q: Tell me its TGI given Clc1ccc(-c2cn3c(nc4ccccc43)c(/C=C/c3ccco3)n2)cc1 as the entry.
A: > 100 µM

Q: Tell me its TGI given CCOC(=O)Nc1ccc2c(c1)c(CCCCCCc1nc3ccccc3c3ccc(NC(=O)OCC)cc13)nc1ccccc12 as the entry.
A: 74.2 µM

Q: Tell me its TGI given CC(=O)NC(C)(C)C1CCC(C)=C(c2ccccc2)C1 (stereo unspecified) as the entry.
A: > 100 µM

Q: Tell me its TGI given COC(=O)C1Cc2c(n(C)c3ccccc23)C(CCC(=O)O)N1Cc1ccccc1 (stereo unspecified) as the entry.
A: > 100 µM

Q: Tell me its TGI given COC(=O)c1c(C#N)c(N)nc2c1CCC2 as the entry.
A: > 100 µM

Q: Tell me its TGI given O=C(N=c1ccc2nc(=O)[nH]n(O)c-2c1)C(F)(F)F as the entry.
A: > 100 µM

Q: Tell me its TGI given CN(CCNC(=O)c1cn(C)c2c1ccc1cc(Cl)c(Cl)cc12)CCNC(=O)c1cn(C)c2c1ccc1cc(Cl)c(Cl)cc12 as the entry.
A: 5.67 µM

Q: Tell me its TGI given O=C(O)[C@H](NS(=O)(=O)c1ccc(F)cc1)c1ccccc1 as the entry.
A: > 100 µM

Q: Tell me its TGI given CC1=C(c2ccccc2)C(O)(c2ccccc2)C(C)C1=O (stereo unspecified) as the entry.
A: > 100 µM

Q: Tell me its TGI given O=C(CCC=C(S(=O)(=O)c1ccccc1)S(=O)(=O)c1ccccc1)c1ccccc1 as the entry.
A: 63.6 µM

Q: Tell me its TGI given CN(C)c1ccc(/C=C(\NC(=O)c2ccccc2)C2=NC(CCC(=O)O)C(=O)O2)cc1 (stereo unspecified) as the entry.
A: > 50 µM

Q: Tell me its TGI given COc1ccc(N=NC(=O)NC(CC(C)C)C(N)=O)cc1 (stereo unspecified) as the entry.
A: > 31.6 µM

Q: Tell me its TGI given NC(CCOCCP(=O)(O)O)C(=O)O (stereo unspecified) as the entry.
A: > 100 µM

Q: Tell me its TGI given C=C1CC(Cn2ccc(=O)[nH]c2=O)(c2ccc(Cl)cc2)OC1=O (stereo unspecified) as the entry.
A: 3.61 µM

Q: Tell me its TGI given COc1ccc2c(c1)c(-c1nc(-c3c[nH]c4ccncc34)cs1)cn2C as the entry.
A: 3.71 µM

Q: Tell me its TGI given COc1cc(Nc2ncc(-c3ccccc3)o2)cc(OC)c1 as the entry.
A: > 25 µM

Q: Tell me its TGI given Nc1nc([Se])c2ncn(C3OC(CO)C(O)C3O)c2n1 (stereo unspecified) as the entry.
A: > 100 µM

Q: Tell me its TGI given CCc1ccc(CCC(=O)Nc2ncc(Cc3ccc(Cl)cc3)s2)o1 as the entry.
A: > 100 µM

Q: Tell me its TGI given CCOC(=O)C(Cc1c[nH]c2cc([N+](=O)[O-])ccc12)NS(=O)(=O)c1ccc2ccccc2c1 (stereo unspecified) as the entry.
A: 28 µM
